Data origin, for the record: patent US12234227B2

Target: human H4 receptor (Homo sapiens)
Construct: expressed in transfected cells; host or cells: HEKf cells transduced with baculovirus
Experiment: H4 Antagonist Functional cAMP Gi Assay
Format: cell-based
Settings: H4 antagonist activity, read-out: Human H4 CAMP fpKb (converted)
Counter-ions that a name gives are not always drawn.
VALUE KIND: Kb (nM)

CN[C@@H]1CCN(c2cc(-c3cc(C)n[nH]3)nc(N)n2)C1    7.94

A: CN[C@@H]1CCN(c2cc(-c3[nH]ncc3Cl)nc(N)n2)C1
B: CNC1CN(c2cc(-c3cnn(C(F)(F)F)c3)nc(N)n2)C1 [Example 8-16, ditrifluoroacetate]
C: CN[C@@H]1CCN(c2cc(-c3c(C)nn(C)c3C)nc(N)n2)C1
D: CN[C@@H]1CCN(c2cc(-c3cn[nH]c3C)nc(N)n2)C1
E: CN[C@@H]1CCN(c2cc(-c3cnn4c3CCC4)nc(N)n2)C1 [Example 12-4, dihydrochloride]
List the 5 entries from lowest Kb to highest Kb value. Please reply with the labels ordered as requested. Many thanks.
B, A, D, C, E

a: CN[C@@H]1CCN(c2cc(-c3[nH]nc(C(F)(F)F)c3C)nc(N)n2)C1
b: CN[C@@H]1CCN(c2cc(N)nc(-c3cnn(C)c3C)c2)C1 [Example 14-1, dihydrochloride]
Task for the reader: decide whether a or b has the larger Kb. The response must carry the label of the picked entry.
b
